meta.source: paper PMC3914206

Listed next: entries and their corresponding % Ctrl, TSSK1B.
target: panel of 442 kinases (Homo sapiens, UniProt Q9BXA7); construct: purchased KINOMEscan; assay type: binding; conditions: kinase TSSK1B; compound concentration 10 µM
Sequence (Q9BXA7 whole entry): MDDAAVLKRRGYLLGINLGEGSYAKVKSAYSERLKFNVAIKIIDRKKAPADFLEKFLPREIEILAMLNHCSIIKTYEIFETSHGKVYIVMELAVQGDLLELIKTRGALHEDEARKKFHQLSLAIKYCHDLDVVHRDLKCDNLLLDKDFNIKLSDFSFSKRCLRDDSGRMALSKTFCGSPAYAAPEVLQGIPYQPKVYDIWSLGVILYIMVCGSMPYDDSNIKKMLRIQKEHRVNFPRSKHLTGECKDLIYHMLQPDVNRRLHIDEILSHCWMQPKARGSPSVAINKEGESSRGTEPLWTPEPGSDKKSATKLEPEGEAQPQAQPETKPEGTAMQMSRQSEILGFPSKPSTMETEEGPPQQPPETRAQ
# unit: % Ctrl | format: bare number

Prompt line: For COc1cc(C(=O)N2CCC(N3CCN(C)CC3)CC2)ccc1Nc1ncc2c(n1)N1CCc3cccc(c31)C(=O)N2C , what is its reported % Ctrl, TSSK1B?
Response line: 61

Prompt line: Consider next the molecule COc1cc(C(=O)N2CCC(N3CCN(C)CC3)CC2)ccc1Nc1ncc2c(n1)N(C)c1ccccc1C(=O)N2C in the same way.
Response line: 60

Prompt line: Consider next the molecule CCOc1cc(C(=O)N2CCC(N3CCN(C)CC3)CC2)ccc1Nc1ncc2c(n1)N(C1CCCC1)c1ccccc1C(=O)N2C in the same way.
Response line: 100

Prompt line: Consider next the molecule COc1cc(C(=O)N2CCC(N3CCN(C)CC3)CC2)ccc1Nc1ncc2c(n1)N(C1CCCC1)c1ccccc1C(=O)N2C in the same way.
Response line: 90
